B1: Twister Ribozyme (parent)
chain: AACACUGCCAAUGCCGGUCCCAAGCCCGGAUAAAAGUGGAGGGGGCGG

- Variants of: B1
- METHOD: self-cleavage, relative activity (ratio to wild type); higher = more cleavage; co-transcriptional
Rule: self-cleavage of 0.1 or more gives Yes; anything lower gives No.

Look over these answered cases.
1) C15U G39C    Yes
2) G28U G47C    Yes
3) C21U G42C    Yes
4) C9U G39C    Yes
5) G16C C21G    No

Query: Check the entry C26A U37A : does self-cleavage equal or exceed 0.1?
Reply: Yes

Query: Check the entry C25A A35C : does self-cleavage equal or exceed 0.1?
Reply: Yes

Query: Check the entry C46A G48U : does self-cleavage equal or exceed 0.1?
Reply: Yes

Query: Check the entry G17U G43A : does self-cleavage equal or exceed 0.1?
Reply: Yes

Query: Check the entry U18A : does self-cleavage equal or exceed 0.1?
Reply: Yes
